target: CDK6 CCND3 (human) (UniProt P30281+Q00534); assay: radiometric filter-binding kinase assay, Kinase HotSpot; settings: compound 0.5 µM; ATP 10 µM
Sequence (P30281 whole entry, looked up): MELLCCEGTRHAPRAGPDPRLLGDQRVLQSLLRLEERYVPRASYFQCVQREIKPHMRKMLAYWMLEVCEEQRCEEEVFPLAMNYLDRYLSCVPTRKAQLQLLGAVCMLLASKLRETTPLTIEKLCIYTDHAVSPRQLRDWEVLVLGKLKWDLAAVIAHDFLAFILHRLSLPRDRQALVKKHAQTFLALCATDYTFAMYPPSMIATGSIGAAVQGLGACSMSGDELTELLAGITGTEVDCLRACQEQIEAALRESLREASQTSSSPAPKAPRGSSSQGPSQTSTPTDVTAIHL
Sequence (Q00534 whole entry, looked up): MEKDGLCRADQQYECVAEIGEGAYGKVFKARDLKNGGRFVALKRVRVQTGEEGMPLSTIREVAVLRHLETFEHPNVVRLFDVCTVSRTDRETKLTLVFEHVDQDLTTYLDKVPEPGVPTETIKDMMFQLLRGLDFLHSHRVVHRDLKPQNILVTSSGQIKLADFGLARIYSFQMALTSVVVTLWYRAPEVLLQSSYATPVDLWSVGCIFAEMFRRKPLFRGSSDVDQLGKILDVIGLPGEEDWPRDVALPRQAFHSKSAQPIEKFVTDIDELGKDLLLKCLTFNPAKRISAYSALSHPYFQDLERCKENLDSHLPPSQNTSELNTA
Can you tell me residual activity for the items I'm about to list?
Please state the figure in %; there is no need to write the unit.

Param item = `c1ccc2c(-c3ccncc3)c[nH]c2c1` ; retrieve measured residual activity.
101

Now give it for `Fc1ccc(-c2nc3n(c2-c2ccncc2)CCS3)cc1` too.
108

Also `NC(=O)c1cccc(-c2cc(Nc3ccc(OC(F)(F)F)cc3)ncn2)c1` ?
96.2

Follow-up item: `O=C(c1cc2cc(O)ccc2[nH]1)c1cc2cc(O)ccc2[nH]1`
50.3

Also check `COc1ccc2c(c1)c(C1=C(c3c[nH]c4ccccc34)C(=O)NC1=O)cn2CCCN(C)C`
85

What do we get for `O=C1Nc2ccc(Br)cc2/C1=C\c1cc2c([nH]1)CCCC2` ?
85.8

Now give it for `Cc1nc(-c2ccccc2)c(-c2ccncc2)o1` too.
109

Likewise for `Cn1c2ccccc2c2c3c(c4c5ccccc5n(CCC#N)c4c21)CNC3=O` ?
52.1

Another compound to check: `CN(C)CCCn1cc(C2=C(c3c[nH]c4ccccc34)C(=O)NC2=O)c2ccccc21`
73.3

Queued: `Cc1cn(-c2cc(NC(=O)c3ccc(C)c(Nc4nccc(-c5cccnc5)n4)c3)cc(C(F)(F)F)c2)cn1`
128

Also `CN1CCN(c2ccc3nc(-c4c(N)c5c(F)cccc5[nH]c4=O)[nH]c3c2)CC1` , if possible.
31.9

Quick one: `Ic1cccc(CSc2nnc(-c3ccncc3)o2)c1`
102

Likewise for `Cc1cncc2cccc(S(=O)(=O)N3CCCN(C(=O)CN)C[C@H]3C)c12` ?
104

# repeat for `COc1ccc(Cl)cc1NC(=O)Nc1cc(C)nc2ccccc12`
99

Also `COc1ccc(S(=O)(=O)N(CCO)c2ccccc2CN(C)C/C=C/c2ccc(Cl)cc2)cc1` ?
102

Proceed to `O=C1c2ccccc2-c2n[nH]c3cccc1c23`
88.6

Then what about the compound `Cc1cccc(-c2nc(C(C)(C)C)[nH]c2-c2ccc3c(c2)OCO3)n1` ?
98

What do you get for `CS(=O)(=O)CCNCc1ccc(-c2ccc3ncnc(Nc4ccc(OCc5cccc(F)c5)c(Cl)c4)c3c2)o1` ?
120
